Test: qHTS RealTime-Glo MT Cell Viability Assay in HEK293 cells - 24 hour (AID 1224886); also: nearly all actives have a fitted effect of over 50% in size
Details: RealTime-Glo luminescence; series mostly up to 76.8 µM
Records with an inconclusive call do not appear. Calls of active or inactive are those of the source. Calls follow the shape of the dose curve; as a rule, active = well fitted cell-killing curve with a large enough effect in the repeat runs; inconclusive = weak or mixed curves, or effect the other way; inactive = flat fitted curve, though single readings scatter.
Give your call using only these classes: active, inactive

What is the recorded call for this molecule in the test? C[C@]12CCC(=O)C[C@@H]1CC[C@@H]1[C@@H]2CC[C@]2(C)[C@@H](O)CC[C@@H]12
active

Test call for this molecule, please: Brc1ccc(Oc2cc(Br)c(Br)cc2Br)c(Br)c1
active

Tell me the recorded outcome of this test for CC(C)NC(C)C .
inactive

Kindly provide the recorded test outcome for the following molecule: Clc1nc(Cl)nc(Cl)n1
inactive

Please share the test call associated with CCCCCCCCC(=O)NCc1ccc(O)c(OC)c1 .
inactive

Lab log entry: Oc1cc(Cl)c(Cl)cc1Cl — outcome as called in the assay?
inactive

Kindly provide the recorded test outcome for the following molecule: c1ccc(N=Nc2ccccc2)cc1
inactive
